The entries below are paired with their reported T/C.
system: L1210 leukemia ip in BDF1 mice, survival T/C; assay: NCI In Vivo Anticancer Drug Screen. Data for tumor model L1210 Leukemia (intraperitoneal) in B6D2F1 (BDF1) mice; settings: endpoint: mean survival time; dose: 300.0 mg/kg/injection; schedule: Q01DX001 (ip); vehicle: carboxymethylcellulose (CMC); higher = longer survival
Inconclusive results and toxic doses are left out.

Guide cases for T/C, answers given:
>>> df
                                   molecule            result
0  O=C(O)c1cc(Cl)ccc1-c1ccc(Cl)cc1C(=O)Nc1ccc2c(c1)Cc1ccccc1-2  104 % of control
1  CCCCC(CCCC)NC(C)COC(=O)c1ccc(N)cc1 (stereo not given)  101 % of control
2  CC[n+]1cccc(-c2ccc(NC(=O)/C=C/c3ccc(C(=O)Nc4ccc(-c5ccc[n+](CC)c5)cc4)cc3)cc2)c1  120 % of control

Consider the molecule shown here: S=P(NCc1cccc(CNP(=S)(N2CC2)N2CC2)c1)(N1CC1)N1CC1 What is its recorded T/C?
93 % of control

Can you look up the measured T/C of CNC(=O)Nc1ncn[nH]1 for me?
104 % of control

* * *

test system: L1210 leukemia ip in BDF1 mice, survival T/C; assay: NCI In Vivo Anticancer Drug Screen. Data for tumor model L1210 Leukemia (intraperitoneal) in B6D2F1 (BDF1) mice; conditions: endpoint: mean survival time; dose: 400.0 mg/kg/injection; schedule: Q01DX001 (ip); vehicle: Klucel (hydroxypropylcellulose) (HPC); higher = longer survival
Inconclusive results and toxic doses are left out.
attributeMeasured: T/C

Worked set:
>>> df
                                   molecule                              targetsystem           result
0  Cc1ccc(C(=O)/C=C2/SS/C(=C/C(=O)c3ccc(C)cc3)S2)cc1  L1210 leukemia ip in BDF1 mice, survival T/C  98 % of control
1     NS(=O)(=O)c1ccc(NC(=O)Nc2ccccc2Cl)cc1  L1210 leukemia ip in BDF1 mice, survival T/C  92 % of control
2  NC(C(=O)O)c1ccccc1Cl (stereo unspecified)  L1210 leukemia ip in BDF1 mice, survival T/C  91 % of control
3          COc1ccc(COC(=O)Nc2cccc(Cl)c2)cc1  L1210 leukemia ip in BDF1 mice, survival T/C  95 % of control
4                          CCCCCCSc1nccnc1C  L1210 leukemia ip in BDF1 mice, survival T/C  98 % of control
5  CN(CCCN1C(=O)c2ccccc2C1=O)c1ccc(NS(=O)(=O)c2ccc([N+](=O)[O-])cc2)cc1  L1210 leukemia ip in BDF1 mice, survival T/C  97 % of control

Please look up its T/C: CCN1C(=O)Cc2ccccc21
93 % of control

Can you look up the measured T/C of CCOC(=O)C(C#N)(CC/C(C)=N/Nc1ccc([N+](=O)[O-])cc1[N+](=O)[O-])C(C)COC(C)=O (stereo unspecified) for me?
102 % of control

I have this molecule here, Clc1ccc(/C=N\Nc2ccccc2)c(Cl)c1 , and I need its recorded T/C.
109 % of control

Given the entry O=C1CCNc2cc(Cl)ccc21 , report its measured T/C.
104 % of control

So what does the record say about T/C for Nc1cc2scnc2c(N)n1 ?
86 % of control

* * *

tested on: L1210 leukemia ip in BDF1 mice, survival T/C; assay: NCI In Vivo Anticancer Drug Screen. Data for tumor model L1210 Leukemia (intraperitoneal) in B6D2F1 (BDF1) mice; conditions: endpoint: mean survival time; dose: 40.0 mg/kg/injection; schedule: Q01DX001 (ip); vehicle: carboxymethylcellulose (CMC)
Inconclusive results and toxic doses are left out. Rule as the data show it: active = T/C of 150% or more; inactive = T/C below 125%.
Outcomes you can answer with include only these: y = active, n = inactive

Past entries and their recorded results:
>>> df
                                 itemsmiles  cat
0  CCc1ccc(/C=C/c2ccc(O)c3ncccc23)[n+](C)c1    n
1  COc1ccc(CCNC(=O)Cc2ccccc2[N+](=O)[O-])cc1OC    n
2     Nc1ccc2nc3ccc(=O)cc-3n(-c3ccccc3)c2c1    n

Would you kindly look at the next entry?
Hi, sorry to bother you, what did the test record for O=NN(CCCl)C(=O)Nc1c[nH]c(=O)[nH]c1=O ?
y

* * *

Entries and their measured T/C follow.
system: L1210 leukemia ip in BDF1 mice, survival T/C; assay: NCI In Vivo Anticancer Drug Screen. Data for tumor model L1210 Leukemia (intraperitoneal) in B6D2F1 (BDF1) mice; details: endpoint: mean survival time; dose: 400.0 mg/kg/injection; schedule: Q04DX002 (ip); vehicle: saline with Tween-80; higher = longer survival
Toxic doses and inconclusive results are not listed.

// worked examples, T/C included
>>> df
                                   compound            result
0                    CCC(=O)/C=C/c1ccccc1OC  105 % of control
1  COc1ccc(OC)c(/C=N/NC(=O)CCCCCCCCC(=O)N/N=C/c2cc(OC)ccc2OC)c1   86 % of control
2           O=C(NCCN1CCOCC1)Nc1cccc2c1CCCC2  116 % of control
3      CC1CC(C)NC(=O)N1 (centres undefined)   98 % of control
4  CCC1(c2ccccc2)C(=O)N(CCl)C(=O)N(CCl)C1=O   95 % of control
5  O=C(Nc1ccccc1)OCC(OC(=O)Nc1ccccc1)C(COC(=O)Nc1ccccc1)OC(=O)Nc1ccccc1 (centres undefined)   88 % of control

Need T/C of COC(=O)c1cn2cc(Cl)cc(Cl)c2c1C(=O)OC , thanks.
95 % of control

GET /values?readout=T/C&item= Cc1ccc(C(=O)c2sc(Nc3cccc(C(F)(F)F)c3)c(C#N)c2N)c(C)c1
91 % of control

Which measured T/C value corresponds to CN(C)c1n[nH]c(N)n1 ?
108 % of control

* * *

Items are presented alongside their recorded T/C.
system: L1210 leukemia ip in BDF1 mice, survival T/C; test: NCI In Vivo Anticancer Drug Screen. Data for tumor model L1210 Leukemia (intraperitoneal) in B6D2F1 (BDF1) mice; settings: endpoint: mean survival time; dose: 100.0 mg/kg/injection; schedule: Q04DX003 (ip); vehicle: saline with Tween-80; higher = longer survival
Inconclusive results and toxic doses are left out.

For orientation, consider the following solved cases.
In [3]: df
Out[3]:
                                   compound            result
0         O=C(/C=C/c1ccc(F)cc1)c1ccc(Cl)cc1   96 % of control
1  CC(=O)OC1CC2(Cl)CC1(Cl)C(Cl)=C2Cl (configuration not stated)  106 % of control

Could you tell me which T/C is on file for NC(=S)c1ccc2ccc3cccnc3c2n1 ?
104 % of control

Field request: T/C | item: COC(=O)c1[nH]nc(-c2ccccc2)c1N
101 % of control

Query (compound): CCOc1ccc(C(=O)OCCCl)cc1 ; field requested: T/C
110 % of control

So what's the measured T/C for this one? O=C(O)Cn1c(C(F)(F)F)nc2nc(Cl)c(Cl)nc21
94 % of control

Please give the measured T/C for this compound: CC(=O)C(C(N)=O)C(c1ccc2c(c1)OCO2)C(C(C)=O)C(=O)NCc1ccccc1 (configuration not stated)
87 % of control

Which T/C value is on record for C1CC[N-]CC1.Oc1ccccc1C=NCCN=Cc1ccccc1O.[CH3-].[Rh+2] ?
106 % of control

What value of measured T/C is listed for CCCCCCC(=O)Nc1cccc(OC(=O)NC)c1 ?
98 % of control

Quick one: T/C for CCCc1nc2c(=O)[nH]cnc2o1 ?
89 % of control

Which T/C is reported for this compound? O=C(/C=C\c1ccc2c(c1)OCO2)/C=C/c1ccc2c(c1)OCO2
97 % of control

# input compound: COc1cc2c(cc1[N+](=O)[O-])OCO2 ; wanted: its T/C
104 % of control

* * *

As shown below, each of these compounds has a reported T/C value.
tested on: L1210 leukemia ip in BDF1 mice, survival T/C; experiment: NCI In Vivo Anticancer Drug Screen. Data for tumor model L1210 Leukemia (intraperitoneal) in B6D2F1 (BDF1) mice; conditions: endpoint: mean survival time; dose: 100.0 mg/kg/injection; schedule: Q04DX003 (ip); vehicle: Klucel (hydroxypropylcellulose) (HPC); higher = longer survival
Toxic doses and inconclusive results are not listed. Square brackets hold non-standard residues; d marks the D form. Peptide text beside a SMILES is read from it. * marks the point of attachment. ξ: configuration not given here. ξE = NC(CCC(=O)O)C(=O)O; Cbz = O=C(OCc1ccccc1)*

Completed entries (count: 2):
In [3]: df
Out[3]:
                                compound                              targetsystem            result
0        O=c1[nH]cc(NCc2ccco2)c(=O)[nH]1  L1210 leukemia ip in BDF1 mice, survival T/C  101 % of control
1  CC1=NNC(=O)C1CCO (stereo unspecified)  L1210 leukemia ip in BDF1 mice, survival T/C   89 % of control

Fill in the blank: the reported T/C of COC1(OC)C2(Cl)CC(c3ccc(Cl)cc3)C1(Cl)C(Cl)=C2Cl (stereo unspecified) is ____.
98 % of control

Using the record for O=C(Cl)C1(Br)CC2c3ccccc3C1([N+](=O)[O-])c1ccccc12 (stereo unspecified) , report its T/C.
108 % of control

Any idea what its T/C is? The compound is COc1ccc(C23CCCC(=O)C2C2C(=O)CCCC23c2ccc(OC)cc2)cc1 (stereo unspecified)
100 % of control

What value of T/C has been recorded for this entry: CC(=O)Oc1ccccc1C(C)=O
96 % of control

What does the record list as T/C for O=P(O)(O)/C=C/c1ccccc1 ?
90 % of control

Param item = Cc1cccc(C)c1NC(=O)c1ccc(Cl)cc1Cl ; retrieve measured T/C.
98 % of control

So what does the record say about T/C for Cc1ccc(NC(=O)c2c(Cl)c(Cl)c(Cl)c(Cl)c2C(=O)O)cc1Cl ?
103 % of control

Recorded T/C for O=C(NCCCl)NC1CCc2ccccc2C1 (stereo unspecified) , please?
93 % of control

# T/C lookup, item NC(=O)Nc1nc(-c2ccccc2)no1
97 % of control

What does the data say about its T/C? Entry: CC(C)NC(=O)CN=NNc1nc[nH]c1C(N)=O
101 % of control

What value of T/C has been recorded for this entry: c1ccc([Si](O[O][Ge]([c]2ccccc2)([c]2ccccc2)[c]2ccccc2)(c2ccccc2)c2ccccc2)cc1
93 % of control

Need T/C of O=C(O)CCC(NC(=O)CNC(=O)OCc1ccccc1)C(=O)O (stereo not drawn) (Cbz-Gly-[ξE]-OH) , thanks.
96 % of control

Which measured T/C value corresponds to CCOC(=O)C(NC(C)=O)C(=O)OCC ?
107 % of control

Would you kindly share the measured T/C for Cc1cccc(C)c1NC(=O)Nc1ccc(Cl)cc1 ?
97 % of control

Any idea what T/C was measured for Cc1c(C)c(CC#N)c(C)c(C)c1CC#N ?
91 % of control

Query (compound): CN(C)C(=O)C1(c2ccc(Cl)cc2)CCN(CCCC(=O)c2ccc(F)cc2)CC1 ; field requested: T/C
116 % of control

Using the record for CC(C)Cc1ccc(C(=O)O)cc1 , report its T/C.
97 % of control

Fill in: T/C of Nc1ccc2[nH]c3ccccc3c2c1 is ___
104 % of control

// T/C lookup, key: S=C1NCCCS1
98 % of control

Please look up its T/C: Cc1cc(C(=O)O)c(C)[nH]1
93 % of control

Can you share its T/C? I mean this compound: COc1cc(OC)cc(OC)c1
100 % of control

Fill in: T/C of COc1ccc(NC(=O)Nc2onc(C)c2C)c(Cl)c1 is ___
87 % of control

Param item = Oc1ccccc1/C=N/n1cnnc1 ; retrieve measured T/C.
98 % of control

Quick one: T/C of CC(C)(C)C1CCC(NC2=NCCO2)CC1 (stereo unspecified) ?
102 % of control

I would be grateful if you could share the reported T/C for Cn1nc(N)c2cc(C(N)=O)c(N)nc21 .
96 % of control

What value of T/C has been recorded for this entry: CCc1ccc(NC(=O)Nc2cccc3ccccc23)cc1
98 % of control

// lookup T/C for COC(=O)Nc1ccc(N)c(NC(=O)OC)n1
106 % of control

Which T/C value is on record for Nc1ccc(-c2ccc(NC(=O)C(=O)O)cc2)cc1 ?
111 % of control

Could you share which T/C value was measured for CCCCCCCCCCCCCCCC(=O)OCC1OC(CO)(OC2OC(CO)C(O)C(O)C2O)C(O)C1O (stereo unspecified) ?
89 % of control

Recorded T/C of CNC(Cc1ccccc1)c1ccc(OC)cc1 (stereo unspecified) , please.
96 % of control

Form field: reported T/C of OCCNC1c2ccccc2-c2ccccc21
102 % of control
